- experimental_system: Transient receptor potential cation channel subfamily V member 4 (Homo sapiens, UniProt Q9HBA0)
- Sequence (Q9HBA0 whole entry): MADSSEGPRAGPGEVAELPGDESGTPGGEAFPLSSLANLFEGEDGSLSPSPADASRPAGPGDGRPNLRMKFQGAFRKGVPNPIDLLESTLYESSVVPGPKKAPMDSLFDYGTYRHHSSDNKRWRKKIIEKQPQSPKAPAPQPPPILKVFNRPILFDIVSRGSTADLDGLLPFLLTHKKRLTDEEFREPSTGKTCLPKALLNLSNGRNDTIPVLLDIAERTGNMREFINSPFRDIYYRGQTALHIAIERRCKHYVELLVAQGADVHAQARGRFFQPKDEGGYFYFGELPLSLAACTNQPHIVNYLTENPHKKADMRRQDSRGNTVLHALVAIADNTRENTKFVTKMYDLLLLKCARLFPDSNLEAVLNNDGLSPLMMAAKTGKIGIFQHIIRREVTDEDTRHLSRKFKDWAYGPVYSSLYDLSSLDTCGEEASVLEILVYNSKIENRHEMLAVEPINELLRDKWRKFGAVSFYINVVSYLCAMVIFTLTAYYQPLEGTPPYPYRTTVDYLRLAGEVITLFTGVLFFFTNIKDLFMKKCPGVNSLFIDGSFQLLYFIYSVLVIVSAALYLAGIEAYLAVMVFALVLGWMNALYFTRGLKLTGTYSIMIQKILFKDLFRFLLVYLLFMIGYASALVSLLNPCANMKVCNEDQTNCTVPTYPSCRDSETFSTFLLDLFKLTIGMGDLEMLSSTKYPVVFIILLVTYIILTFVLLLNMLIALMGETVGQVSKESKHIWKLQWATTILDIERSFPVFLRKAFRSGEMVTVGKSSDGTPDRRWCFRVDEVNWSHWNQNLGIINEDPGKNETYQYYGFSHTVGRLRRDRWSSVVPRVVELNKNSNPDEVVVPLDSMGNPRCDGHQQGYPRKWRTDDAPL
- assay_comment: Antagonist activity at recombinant human TRPV4 expressed in CHOK1 cells assessed as inhibition of 4alphaPDD-induced activation pretreated for 5 mins followed by 4alphaPDD stimulation measured for 5 mins by FLIPR assay
- Type: cell-based
measured_parameter: IC50 (nM)

a = Cc1nc(C(C)O)sc1-c1csc(Nc2ccc(C(=O)N3C4CCC3CN(c3ncc(C(F)(F)F)cn3)C4)cn2)n1 (centres undefined)
b = Cc1nc(C)c(-c2csc(Nc3ccc(C(=O)N4C5CCC4CN(c4ncc(C(N)=O)cn4)C5)cn3)n2)s1
c = Cc1nn(C)cc1-c1csc(Nc2ccc(C(=O)N3C4CCC3CN(c3ncc(C(F)(F)F)cn3)C4)cn2)n1
d = Cc1nn(C)cc1-c1nsc(Nc2ccc(C(=O)N3C4CCC3CN(c3ncc(C(F)(F)F)cn3)C4)cn2)n1
Exercise: Hello, I need these entries ordered by IC50, highest reading first. Thanks! // list labels; follow requested order
Solution: d, b, a, c
(d: 6.2 nM, b: 4.2 nM, a: 1.8 nM, c: 0.87 nM)

---

- experimental_system: Transient receptor potential cation channel subfamily V member 4 (Homo sapiens)
- assay_comment: Antagonist activity at recombinant human TRPV4 expressed in CHOK1 cells assessed as inhibition of 4alphaPDD-induced activation pretreated for 5 mins followed by 4alphaPDD stimulation measured for 5 mins by FLIPR assay
- Format: cell-based
measured_parameter: IC50 (nM)

Use the examples below as a reference point.
molecule	IC50 [nM]
Cc1nc(C)c(-c2csc(Nc3ccc(C(=O)N4C5CCC4CN(c4cnc(C(F)(F)F)cn4)C5)cn3)n2)s1	2.6
Cc1nc(C)c(-c2csc(Nc3ccc(C(=O)N4C5CCC4CN(c4ccc(C(F)(F)F)nn4)C5)cn3)n2)s1	2.2
Cc1nc(C)c(-c2csc(Nc3ccc(C(=O)N4C5CCC4CN(c4ncc(Br)cn4)C5)cn3)n2)s1	0.21
Cc1nc(C)c(-c2csc(Nc3ccc(C(=O)N4C5CCC4CN(c4ncc(S(C)(=O)=O)cn4)C5)cn3)n2)s1	0.39
Cc1nc(C)c(-c2csc(Nc3ccc(C(=O)N4CCN(c5ncc(C(F)(F)F)cn5)CC4C(F)(F)F)cn3)n2)s1 (stereo not drawn)	0.29
Cc1nc(C)c(-c2csc(Nc3ccc(C(=O)N4C5CCC4CN(c4ncccn4)C5)cn3)n2)s1	0.5

I = Cc1nc(C)c(-c2csc(Nc3ccc(C(=O)N4C5CCC4CN(c4ncc(CO)cn4)C5)cn3)n2)s1
II = Cc1nc(C)c(-c2csc(Nc3ccc(C(=O)N4CCN(c5ncc(C(F)(F)F)cn5)C[C@H]4C)cn3)n2)s1
Exercise: Of the two listed items, which has the higher IC50? First: I Second: II I would appreciate it if you answered with the label of your choice.
Solution: II
(II: 2.4 nM, I: 0.65 nM)

---

- experimental_system: Transient receptor potential cation channel subfamily V member 4 (Rattus norvegicus, UniProt Q9ERZ8)
- Sequence (Q9ERZ8 whole entry): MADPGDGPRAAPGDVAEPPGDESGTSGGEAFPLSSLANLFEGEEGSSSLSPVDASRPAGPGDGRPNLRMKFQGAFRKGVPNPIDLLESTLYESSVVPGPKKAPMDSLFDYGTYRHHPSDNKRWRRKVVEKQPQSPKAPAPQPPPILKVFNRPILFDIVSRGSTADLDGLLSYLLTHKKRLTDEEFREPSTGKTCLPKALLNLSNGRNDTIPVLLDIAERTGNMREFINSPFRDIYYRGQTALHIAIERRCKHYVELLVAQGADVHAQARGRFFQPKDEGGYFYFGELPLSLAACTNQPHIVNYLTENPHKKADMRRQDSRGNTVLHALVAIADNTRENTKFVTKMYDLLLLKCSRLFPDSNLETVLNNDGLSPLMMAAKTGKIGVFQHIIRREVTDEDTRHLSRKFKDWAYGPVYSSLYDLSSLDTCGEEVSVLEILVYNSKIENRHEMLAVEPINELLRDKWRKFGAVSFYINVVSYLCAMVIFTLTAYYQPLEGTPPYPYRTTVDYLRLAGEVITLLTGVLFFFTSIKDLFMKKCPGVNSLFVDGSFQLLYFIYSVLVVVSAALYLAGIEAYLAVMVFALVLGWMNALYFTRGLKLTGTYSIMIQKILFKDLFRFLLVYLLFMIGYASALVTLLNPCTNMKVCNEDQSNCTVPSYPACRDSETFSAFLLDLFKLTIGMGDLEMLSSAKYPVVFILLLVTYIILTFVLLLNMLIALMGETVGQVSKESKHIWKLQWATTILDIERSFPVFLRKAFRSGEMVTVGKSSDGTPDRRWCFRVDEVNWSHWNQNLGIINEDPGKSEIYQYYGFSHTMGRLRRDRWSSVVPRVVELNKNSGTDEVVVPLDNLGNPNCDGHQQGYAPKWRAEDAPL
- assay_comment: Antagonist activity at recombinant rat TRPV4 expressed in CHOK1 cells assessed as inhibition of 4alphaPDD-induced activation pretreated for 5 mins followed by 4alphaPDD stimulation measured for 5 mins by FLIPR assay
measured_parameter: IC50 (nM)

Take a look at these entries with their results.
compound	measured_parameter	readout_number
Cc1nc(C)c(-c2csc(Nc3ccc(C(=O)N4CCN(c5ncc(C(F)(F)F)cn5)CC4C(F)(F)F)cn3)n2)s1 (stereo not given)	IC50	8.2
Cc1nc(C(C)O)sc1-c1csc(Nc2ccc(C(=O)N3C4CCC3CN(c3ncc(C(F)(F)F)cn3)C4)cn2)n1 (stereo not given)	IC50	38
Cc1cc(-c2csc(Nc3ccc(C(=O)N4C5CCC4CN(c4ncc(C(F)(F)F)cn4)C5)cn3)n2)n(C)n1	IC50	39
Cc1nc(C)c(-c2csc(Nc3ccc(C(=O)N4CCN(c5ncc(C(F)(F)F)cn5)C[C@@H]4C)cn3)n2)s1	IC50	22
Cc1nc(C)c(-c2csc(Nc3ccc(C(=O)N4CCN(c5ncc(C(F)(F)F)cn5)[C@@H](C)C4)cn3)n2)s1	IC50	47

1 = Cc1nc(C)c(-c2csc(Nc3ccc(C(=O)N4CCN(c5ncc(C(F)(F)F)cn5)C[C@H]4C)cn3)n2)s1
2 = Cc1nc(C)c(-c2csc(Nc3ccc(C(=O)N4C5COCC4CN(c4ncc(C(F)(F)F)cn4)C5)cn3)n2)s1
Exercise: Thinking about recorded IC50 values, which is higher, 1 or 2 ? Please identify the chosen entry by its label.
Solution: 1
(1: 62 nM, 2: 4.4 nM)

P = Cc1nn(C)cc1-c1nsc(Nc2ccc(C(=O)N3C4CCC3CN(c3ncc(C(F)(F)F)cn3)C4)cn2)n1
Q = Cc1nc(C)c(-c2csc(Nc3ccc(C(=O)N4CC5CCC(C4)N5c4ncc(C(F)(F)F)cn4)cn3)n2)s1
Exercise: Endpoint returns the identifier whose IC50 is numerically larger, either P or Q . State your choice using its label.
Solution: P

Data origin, for the record: ChEMBL document CHEMBL4049406
